# System: MDA-MB-231
# assay.comment: Cytotoxicity against human MDA-MB-231 cells after 96 hrs by MTT assay
# Type: functional, cell-based
# details: MDA-MB-231, 96 h
pIC50: −log10 of the molar value.
Entries annotated with measured pIC50
readout.name: pIC50

>>> reported_measurement("CCCCn1c(C(C)C)nc2cc3c(Nc4ccc(OC)c(OC)c4)ncnc3cc21")
4.70
>>> reported_measurement("CCOCCCn1c(Cc2ccccc2)nc2cc3c(Nc4ccc(OC)cc4)ncnc3cc21")
4.81
>>> reported_measurement("CCCCn1c(C(C)C)nc2cc3c(Nc4ccc(F)cc4)ncnc3cc21")
4.70
>>> reported_measurement("CCCc1nc2cc3c(Nc4ccc(OC)c(OC)c4)ncnc3cc2n1CCCOC")
4.69
>>> reported_measurement("CCCCn1c(C(C)C)nc2cc3c(Nc4ccc(C)cc4)ncnc3cc21")
4.97
